Test system: MRSA 31 high-resist. (IPM resist.)
Experiment: antibacterial activity (MIC), standard in vitro dilution test
Type: cell-based, Staphylococcus aureus
Conditions: Staphylococcus aureus, MRSA, test bacterium strain 10^5 cfu/ml; read-out: MIC, MRSA 31 high-resist. (IPM resist.)
measured.metric: MIC (mg/L)
// return numeric value only (unit: mg/L, not printed)

CC[C@H](O)[C@@H]1C(=O)N2C(C(=O)O)=C(S[C@H]3CCN(C[C@@H](O)c4ccccc4)C3)S[C@H]12	6.25
CC[C@H](O)[C@@H]1C(=O)N2C(C(=O)O)=C(SCCNC(=N)c3ccccc3)S[C@H]12	6.25
CC[C@H](O)[C@@H]1C(=O)N2C(C(=O)O)=C(S[C@H]3CCN(Cc4ccccn4)C3)S[C@H]12	6.25
CC[C@H](O)[C@@H]1C(=O)N2C(C(=O)O)=C(SC3CCCN(Cc4ccccc4)C3)S[C@H]12 (stereo partly drawn)	6.25
CC[C@H](O)[C@@H]1C(=O)N2C(C(=O)O)=C(S[C@H]3CCN(CC(=O)c4ccc(OC)cc4)C3)S[C@H]12	6.25

Consider the additional compound presented here.
Input line: What measured MIC goes with CC[C@H](O)[C@@H]1C(=O)N2C(C(=O)O)=C(S[C@H]3CCN(CC4CC4)C3)S[C@H]12 ?
Output line: 6.25
